- method notes: qHTS profiling of the MIPE4 collection as inhibitors of Plasmodium falciparum (DD2) proliferation (AID 743345)
- measurement context: P. falciparum Dd2 in erythrocytes, SYBR Green DNA, 72 h; at 28.5 µM (top of the series) unless noted
- Procedure: Plasmodium falciparum is a virulent malarial parasite that kills 1-2 million people worldwide each year. […] Because mature erythrocytes lack DNA, only Plasmodium-derived DNA is detected. The SYBR Green viability assay was adapted from a method described previously (Plouffe et al., 2008). […] The following morning, fluorescence intensity at 485(14) nm excitation and 535(25) nm emission wavelengths was measured on an EnVision (Perkin Elmer) plate reader. […]
Values of parasite growth remaining, % of DMSO control (lower = more inhibition) strictly less than 90% map to t, and values of at least 90% map to f.

Cc1cnn(C)c1C(=O)Nc1cc(Nc2ccc3c(C=Cc4ccccn4)n[nH]c3c2)ccc1F    t
Cn1cnc(=N)c2[nH]cnc21    t
COc1ccc(Nc2nccc(NCCO)n2)cc1    f
CCc1c(O)cc(O)c(C(=O)c2ccc(OCCN3CCOCC3)c(OC)c2)c1CC(=O)N(CCOC)CCOC    t
CCCc1nc(C(C)(C)O)c(C(=O)O)n1Cc1ccc(-c2ccccc2-c2nn[nH]n2)cc1    f
CC(=O)OC[C@@H]1O[C@@H](n2ccc(=O)[nH]c2=O)[C@H](OC(C)=O)[C@H]1OC(C)=O    f

Does the reported parasite growth remaining, % of DMSO control (lower = more inhibition) of the following molecule sit strictly below 90%? CC(C)(O)[C@H]1CC[C@@](C)([C@H]2[C@@H](O)C[C@@]3(C)[C@@H]4C[C@H](O[C@@H]5O[C@H](CO)[C@@H](O)[C@H](O)[C@@H]5O)[C@H]5C(C)(C)[C@@H](O[C@@H]6OC[C@@H](O)[C@H](O)[C@@H]6O)CC[C@@]56C[C@@]46CC[C@]23C)O1
f

Given O=C1CSC(=O)N1C(CCc1ccncc1)COc1ccc(-c2cccc([N+](=O)[O-])c2)cc1 (stereo not drawn) , is recorded parasite growth remaining, % of DMSO control (lower = more inhibition) strictly lower than 90%?
t

Strictly below 90% in parasite growth remaining, % of DMSO control (lower = more inhibition)? COc1cccc2c1C(=O)c1c(O)c3c(c(O)c1C2=O)C[C@@](O)(C(=O)CO)C[C@@H]3O[C@H]1C[C@H](N)[C@H](OC2CCCCO2)[C@H](C)O1 (stereo partly drawn)
t

Given the entry Cc1cnc(Nc2ccc(N3CCN(C)CC3)cc2)nc1Nc1cccc(S(=O)(=O)NC(C)(C)C)c1 , would its reported parasite growth remaining, % of DMSO control (lower = more inhibition) be below 90%?
t

# strict comparison: is reported parasite growth remaining, % of DMSO control (lower = more inhibition) < 90%? input = O=C(O)CCCCCC(=O)NN=C1CCCC1
f

Is 90% strictly greater than the molecule's reported parasite growth remaining, % of DMSO control (lower = more inhibition)? molecule: CCN(CC)Cc1ccc2cc(COC(=O)Nc3ccc(C(=O)NO)cc3)ccc2c1
t

Here's an entry: O=C(O)CCCCC(CCSCc1ccccc1)SCc1ccccc1 (stereo not drawn) . Is its parasite growth remaining, % of DMSO control (lower = more inhibition) below 90%?
f

Dear colleague, could you confirm whether parasite growth remaining, % of DMSO control (lower = more inhibition) of COc1cc(C)c(Sc2cnc(NC(=O)c3ccc(CNC(C)C(C)(C)C)cc3)s2)cc1C(=O)N1CCN(C(C)=O)CC1 (stereo not drawn) falls below 90%? Thanks.
t

Is the reported parasite growth remaining, % of DMSO control (lower = more inhibition) for CCOC(=O)[C@H](CCc1ccccc1)N[C@@H](C)C(=O)N1[C@@H](C(=O)O)C[C@H]2CCC[C@@H]21 strictly below 90%?
t

In the record for CCc1ccc(C(=O)Nc2cc(CN3CCN(C)CC3)cc(C(F)(F)F)c2)cc1C#Cc1cnc2ccnn2c1 , is parasite growth remaining, % of DMSO control (lower = more inhibition) less than 90%?
t

For O=c1ccn([C@@H]2O[C@H](CO)[C@H](O)[C@@H]2F)c(=O)[nH]1 , is the recorded parasite growth remaining, % of DMSO control (lower = more inhibition) below the cut-off of 90%?
f
